TEST DESCRIPTION: qHTS assay to identify small molecule antagonists of the androgen receptor (AR) signaling pathway using the MDA cell line - cell viability counter screen (AID 743041; further: nearly all actives have a fitted effect of over 45% in size)
PARTICULARS: MDA-kb2 viability, CellTiter-Fluor, 16 h, cells co-treated with R1881 androgen agonist; series mostly up to 70.3 µM
Inconclusive results are not listed. Calls of active or inactive are those of the source. The call rests on the fitted dose curve; in most records, active means well fitted cell-killing curve with a large enough effect in the repeat runs; inconclusive means weak or mixed curves, or effect the other way; inactive means flat fitted curve, though single readings scatter. Positions of bridges follow the written chain, without caps; N, C: chain ends. Non-standard residues stand in square brackets, D forms with d. Residues, ends and D or L forms follow the SMILES beside them. ξ: configuration not given here. *: point of attachment. d(aThr) = C[C@@H](O)[C@@H](N)C(=O)O; ξThr(3R) = C[C@@H](O)C(N)C(=O)O; X3 = CC[C@@H](C)CCCCC(=O)*; dDab = NCC[C@@H](N)C(=O)O
READOUT: outcome

CC[C@@H](C)CCCCC(=O)N[C@H](CCN)C(=O)N[C@@H](C(=O)N[C@H](CCN)C(=O)N[C@@H]1CCNC(=O)C([C@@H](C)O)NC(=O)[C@@H](CCN)NC(=O)[C@@H](CCN)NC(=O)[C@@H](CC(C)C)NC(=O)[C@@H](Cc2ccccc2)NC(=O)[C@@H](CCN)NC1=O)[C@@H](C)O (stereo partly drawn) (X3-[dDab][d(aThr)][dDab][dDab][dDab][dF][dL][dDab][dDab][ξThr(3R)]; lactam 4-C); inactive
CC[C@H](C)[C@H]1O[C@]2(CC[C@@H]1C)C[C@@H]1C[C@@H](C/C=C(\C)[C@@H](O[C@H]3C[C@H](OC)[C@@H](O[C@H]4C[C@H](OC)[C@@H](O)[C@H](C)O4)[C@H](C)O3)[C@@H](C)/C=C/C=C3\CO[C@@H]4[C@H](O)C(C)=C[C@@H](C(=O)O1)[C@]34O)O2; inactive

====

TEST DESCRIPTION: qHTS assay to identify small molecule antagonists of the thyroid receptor (TR) signaling pathway (AID 743065); further: nearly all actives have a fitted effect of over 55% in size; further: potency means the concentration at half of the fitted maximal effect
PARTICULARS: GH3.TRE-Luc, T3-stimulated luciferase inhibition, 23.5 h; series mostly up to 70.3 µM
Inconclusive results are not listed. Activity calls are given as the source filed them. Calls come from the whole dose curve; as a rule, active = well fitted inhibition curve with a large enough effect in the repeat runs; inconclusive = weak or mixed curves; inactive = no such curve, though single readings can be large or run the other way.
READOUT: Potency

// worked examples, Potency included
CCN(CC)c1ccc(C(=C2C=CC(=[N+](CC)CC)C=C2)c2ccccc2)cc1; 0.335 µM (active)
CCOC(=O)[C@H](CCc1ccccc1)N[C@H]1CCCN2CCC[C@@H](C(=O)O)N2C1=O; inactive
C=C(NC(=O)C(=C)NC(=O)c1csc(C2=N[C@@H]3c4csc(n4)[C@H]4NC(=O)c5csc(n5)[C@H]([C@](C)(O)[C@@H](C)O)NC(=O)[C@H]5CSC(=N5)C(=CC)NC(=O)C([C@@H](C)O)NC(=O)c5csc(n5)[C@]3(CC2)NC(=O)[C@H](C)NC(=O)C(=C)NC(=O)[C@H](C)NC(=O)C([C@@H](C)CC)NC2C=Cc3c([C@H](C)O)cc(nc3C2O)C(=O)O[C@@H]4C)n1)C(N)=O (stereo partly drawn); 12.7 µM (active)
O=[n+]1ccn([O-])c2ccccc21; inactive
CCC(c1ccccc1)c1noc(CCN(CC)CC)n1 (stereo not drawn); inactive

Exam item: Identify measured Potency associated with CCC(Cc1c(I)cc(I)c(O)c1I)C(=O)O (stereo not drawn)
Marked response: inactive

Exam item: Identify measured Potency associated with "CNC(=O)[C@H](Cc1c[nH]c2ccccc12)NC(=O)[C@@H](CC(=O)NO)CC(C)C"
Marked response: inactive

Exam item: Identify measured Potency associated with "OC[C@@H](O)C(O)[C@H](O)CO"
Marked response: inactive

// data source = PubChem BioAssay (Tox21)
